# assayedSystem: Nuclear receptor subfamily 1 group I member 2 (Homo sapiens)
# experimentDescription: Human pregnane X receptor (PXR) small molecule agonists, qHTS assay (AID 1346982); also: nearly all actives have a fitted effect of over 35% in size; also: potency is read from the fitted curve at half-maximal effect; as to activation: % is scaled to controls: 0 for no effect and ±100 for the full control effect
# experimentalContext: PXR-Luc HepG2, CYP3A4 luciferase reporter, 24 h; series mostly up to 92.4 µM
Inconclusive results are not listed. Calls of active or inactive are those of the source. Calls follow the shape of the dose curve; as a rule, active = well fitted activation curve with a large enough effect in the repeat runs; inconclusive = weak or mixed curves; inactive = no such curve, though single readings can be large or run the other way.
reportedEndpoint: Potency

Reference set (5 entries):
CCOC(=O)/C=C/C(=O)O | inactive
O=C(O)Cc1ccc(-c2ccccc2)cc1 | inactive
C=CCOC(=O)/C=C\C(=O)OCC=C | inactive
CCC(C)=O | inactive
O=C(O)C(Cc1cc(I)c(O)c(I)c1)c1ccccc1 (configuration not stated) | inactive

Input line: Can you look up the measured Potency of "C=CC(C)(C)CC(=O)OC" for me?
Output line: 68.8 µM (active)

Input line: Now this one: "C[Si]1(C)O[Si](C)(C)O[Si](C)(C)O1"
Output line: inactive

Input line: Now the same for "O=C(c1ccc(O)cc1)c1ccc(Cl)cc1"
Output line: 24.9 µM (active)

Input line: # repeat for "CO[C@H]1C=CO[C@@]2(C)Oc3c(C)c(O)c4c(O)c(c5c(c4c3C2=O)=NC2(CCN(CC(C)C)CC2)N=5)NC(=O)/C(C)=C\C=C/[C@H](C)[C@H](O)[C@@H](C)[C@@H](O)[C@@H](C)[C@H](OC(C)=O)[C@@H]1C"
Output line: 5.98 µM (active)

###

# experimentDescription: qHTS assay to identify small molecule antagonists of the estrogen receptor alpha (ER-alpha) signaling pathway using the BG1 cell line - cell viability counter screen (AID 743081);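 also: compound given together with 17beta-estradiol as the ER stimulus; nearly all actives have a fitted effect of over 45% in size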
# experimentalContext: BG1Luc4E2 viability, CellTiter-Fluor, 22 h; series mostly up to 70.3 µM
Results filed as inconclusive are left out. The source made the active and inactive calls. Calls follow the shape of the dose curve; as a rule, active = well fitted cell-killing curve with a large enough effect in the repeat runs; inconclusive = weak or mixed curves, or effect the other way; inactive = flat fitted curve, though single readings scatter.
reportedEndpoint: outcome

Below, each entry is followed by its recorded outcome result.
C=C(C)C(=O)OCCOC(=O)CC(C)=O | inactive
Cc1ccc(/C=N/n2c(-c3ccccc3)csc2=S)cc1 | inactive
CCCCC(CC)COC(=O)COc1ccc(Cl)cc1C (configuration not stated) | inactive
CC(=O)[C@H]1CC[C@H]2[C@@H]3C[C@H](C)C4=CC(=O)CC[C@]4(C)[C@H]3[C@@H](O)C[C@]12C | inactive
NCC1CCCC(CN)C1 (configuration not stated) | inactive

Input line: outcome for "CC(C)(C)C(=O)O" ?
Output line: inactive

Input line: Similarly, COCC(O)CO (configuration not stated) ?
Output line: inactive

###

# assayedSystem: Aryl hydrocarbon receptor (Homo sapiens)
# experimentDescription: qHTS assay to identify small molecule that activate the aryl hydrocarbon receptor (AhR) signaling pathway (AID 743085); also: nearly all actives have a fitted effect of over 15% in size;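 as to activation: HG2L7.5c1 human HepG2 liver cells with stably integrated DRE-driven firefly reporter; % is scaled to controls: 0 for no effect and ±100 for the full control effect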
# experimentalContext: HepG2 AhR-luc (HG2L7.5c1), luciferase, 24 h; series mostly up to 70.3 µM
Results filed as inconclusive are left out. Calls of active or inactive are those of the source. Calls come from the whole dose curve; as a rule, active = well fitted activation curve with a large enough effect in the repeat runs; inconclusive = weak or mixed curves; inactive = no such curve, though single readings can be large or run the other way.
Reply using exactly one outcome from active, inactive

COc1ccc(C(=O)c2cccc(O)c2)c(OC)c1 | active
NC(=O)N(O)[C@@H]1C=C[C@H](Oc2cccc(Oc3ccc(F)cc3)c2)C1 | inactive
NC(=O)N(O)[C@@H]1COc2cc(OCc3ccccc3)ccc21 | inactive

Input line: Please share the test call associated with "Cc1cc(O)c2c(O)c3c(O)cccc3cc2c1" .
Output line: active

Input line: Entry to check: "C=CCOC(=O)/C=C\C(=O)OCC=C"
Output line: inactive

###

# experimentDescription: qHTS assay for small molecule disruptors of the mitochondrial membrane potential (AID 720635); also: potency is read from the fitted curve at half-maximal effect
# experimentalContext: HepG2 mitochondrial membrane potential, Mito-MPS dye ratio; series mostly up to 83.2 µM
Results filed as inconclusive are left out. The source made the active and inactive calls. Calls follow the shape of the dose curve; as a rule, active = well fitted inhibition curve with a large enough effect in the signal ratio in the repeat runs; inconclusive = weak or mixed curves, or effect the other way; inactive = flat fitted curve, though single readings scatter; the % refers to the signal ratio.
reportedEndpoint: Potency

Known Potency results, listed for orientation:
O=C(O)Cc1ccc(-c2ccccc2)cc1 | inactive
O=C(Nc1ccc([N+](=O)[O-])cc1)Nc1ccc([N+](=O)[O-])cc1 | 0.422 µM (active)
N#C/C(=C1\SCC(c2ccccc2Cl)S1)n1ccnc1 (centres undefined) | inactive
CC(=O)CC(c1ccc([N+](=O)[O-])cc1)c1c(O)c2ccccc2oc1=O (centres undefined) | 7.17 µM (active)
CCCCCCCCCCCC(=O)[O][Sn]([CH2]CCC)([CH2]CCC)[O]C(=O)CCCCCCCCCCC | inactive
Cc1ccnc2ccccc12 | 19.3 µM (active)
O=C(O)c1ccc(CO)o1 | inactive
COC(=O)CC(=O)C(C)(C)C | inactive

Input line: Please look up its Potency: "CO[C@H]1O[C@H](CO)[C@@H](O)[C@H](O)[C@H]1O"
Output line: inactive

Input line: Repeat for the following compound: CN1C(=O)CC(C)(c2ccccc2)C1=O (centres undefined)
Output line: inactive

Input line: Repeat for the following compound: CCCC1C(CC)=CC(CC)=CN1c1ccccc1 (centres undefined)
Output line: 54.5 µM (active)

Input line: Repeat with "Cc1ccc(S)cc1"
Output line: inactive

Input line: Also "CC(=O)Nc1ccc(N)cc1" , if possible.
Output line: inactive

Input line: Now consider "CCCCCCCCCCCC[N+](C)(C)CC(=O)[O-]" .
Output line: inactive

Input line: And for "CCC(=O)Oc1ccc(/C(CC)=C(\CC)c2ccc(OC(=O)CC)cc2)cc1" ?
Output line: 8.63 µM (active)

Input line: Entry "COc1ccc(C(=O)c2cccc(O)c2)c(OC)c1" please
Output line: 30.6 µM (active)

Input line: Try the compound "CC(C)(C)CC(C)(C)c1ccc(OCCO)cc1"
Output line: 60.8 µM (active)

Input line: Entry to check: CO/N=C1\CN(c2nc3c(cc2F)c(=O)c(C(=O)O)cn3C2CC2)CC1CN (centres undefined)
Output line: inactive

###

# experimentDescription: qHTS assay to identify small molecule antagonists of the estrogen receptor alpha (ER-alpha) signaling pathway using the BG1 cell line (AID 743080);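 also: BG1 cells stimulated with 17beta-estradiol alongside compound; nearly all actives have a fitted effect of over 25% in size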
# experimentalContext: BG1Luc4E2 ERE-luciferase antagonist mode, luminescence; series mostly up to 70.3 µM
Inconclusive results are not listed. The source made the active and inactive calls. Calls follow the shape of the full dose curve.
Classes to choose from: active, inactive

Use the examples below as a reference point.
COc1ccc(C(=O)c2cccc(O)c2)c(OC)c1 | active
C1COCO1 | inactive
CCOc1cc(N)c(Cl)cc1C(=O)NCC1CN(Cc2ccc(F)cc2)CCO1 (stereo not given) | inactive
CC1=CC(O)CC(C)(C)C1 (stereo not given) | inactive

Turning to the following compound.
Input line: Hi team, can someone confirm the assay call for "CCOC(=O)CC(=O)C(=O)OCC" ?
Output line: inactive

###

# experimentDescription: qHTS assay to identify small molecule antagonists of the androgen receptor (AR) signaling pathway - cell viability counter screen (AID 743033; also: % is scaled to controls: 0 for no effect and ±100 for the full control effect; nearly all actives have a fitted effect of over 45% in size)
# experimentalContext: AR-bla HEK293 viability, CellTiter-Glo luminescence, 16 h; series mostly up to 58.5 µM
Results filed as inconclusive are left out. The source made the active and inactive calls. The call rests on the fitted dose curve; in most records, active means well fitted cell-killing curve with a large enough effect in the repeat runs; inconclusive means weak or mixed curves; inactive means no such curve, though single readings can be large or run the other way.
reportedEndpoint: outcome

CCCCC(CC)CNCC(CC)CCCC (stereo not drawn) | inactive
CC(=N\O)/C(C)=N/O | inactive
CO/N=C1\CN(c2nc3c(cc2F)c(=O)c(C(=O)O)cn3C2CC2)CC1CN (stereo not drawn) | inactive

###

# experimentDescription: qHTS RealTime-Glo MT Cell Viability Assay in HepG2 cells - 40 hour (AID 1224870); also: nearly all actives have a fitted effect of over 50% in size
# experimentalContext: RealTime-Glo luminescence; series mostly up to 76.8 µM
Inconclusive results are not listed. Calls of active or inactive are those of the source. The call rests on the fitted dose curve; in most records, active means well fitted cell-killing curve with a large enough effect in the repeat runs; inconclusive means weak or mixed curves, or effect the other way; inactive means flat fitted curve, though single readings scatter.
Bench note: report the call from 1 (active), 0 (inactive)

O=C(CCCCCCC(=O)Nc1ccccc1)NO | 1
C=CC(C)(C)CC(=O)OC | 0
OC/C(Br)=C(\Br)CO | 0
C=CC(C)=CCC=C(C)C | 0

Field: next compound
Input line: Recorded test outcome, item "CCCc1c(OCCCOc2ccc(OCC(=O)O)cc2)ccc(C(C)=O)c1O"
Output line: 0

###

# experimentDescription: qHTS assay to identify small molecule antagonists of the estrogen receptor alpha (ER-alpha) signaling pathway using the BG1 cell line - cell viability counter screen (AID 743081);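 also: compound given together with 17beta-estradiol as the ER stimulus; nearly all actives have a fitted effect of over 45% in size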
# experimentalContext: BG1Luc4E2 viability, CellTiter-Fluor, 22 h; series mostly up to 70.3 µM
Records with an inconclusive call do not appear. The source made the active and inactive calls. Calls come from the whole dose curve; as a rule, active = well fitted cell-killing curve with a large enough effect in the repeat runs; inconclusive = weak or mixed curves, or effect the other way; inactive = flat fitted curve, though single readings scatter.
A correct response names exactly one class from active, inactive

Worked cases, answers included:
CCOC(=O)c1ccccc1C | inactive
Fc1ccccc1[C@@H](F)COC1CCC(Nc2ncnc3[nH]ncc23)CC1 (some centres undefined) | inactive

Input line: # lookup: test call for "O=C(Nc1ccc([N+](=O)[O-])cc1)Nc1ccc([N+](=O)[O-])cc1"
Output line: inactive

Input line: Next compound up: "CCCCCCCCCCCC[N+](C)(C)CCCS(=O)(=O)[O-]"
Output line: inactive

Input line: Ok, now "c1cc[c]([Bi]([c]2ccccc2)[c]2ccccc2)cc1"
Output line: inactive

Input line: Please do the same for "CNC(=S)NC" as well.
Output line: inactive

Input line: Consider next the compound "CCCCCCCCCCCCCCC[C@H](O)[C@@H](N)CO" in the same way.
Output line: inactive

Input line: Please do the same for C=CC(C)(O)CCCC(C)CCCC(C)CCCC(C)C (centres undefined) as well.
Output line: inactive

Input line: Would you mind doing "CCNC(=O)N1CCN(CCCC(c2ccc(F)cc2)c2ccc(F)cc2)CC1" as well?
Output line: active

Input line: Please answer likewise for "O=[N+]([O-])c1cccc(S(=O)(=O)NCCNS(=O)(=O)c2cccc([N+](=O)[O-])c2)c1"
Output line: inactive

Input line: For "Cc1ccnc2ccccc12" then?
Output line: inactive

Input line: Next compound: CCCCC(CC)C(=O)OCCOCCOCCOCCOC(=O)C(CC)CCCC (centres undefined)
Output line: inactive

Input line: Subsequent entry: "O=C(O)c1snc(Cl)c1Cl"
Output line: inactive

Input line: Same question, "NC(=O)Cn1c(=O)cc(CCN2CCN(c3nccc4sccc34)CC2)c2ccc(F)cc21" this time
Output line: inactive

Input line: Note, next up: "CC(=O)Oc1ccc(C(=C2CCCCC2)c2ccc(OC(C)=O)cc2)cc1"
Output line: inactive

Input line: Same question for "Cc1ccc(S)cc1" please.
Output line: inactive

Input line: Would you kindly repeat that for "CC(=O)Oc1ccc2c(c1)CC[C@@H]1[C@@H]2CC[C@]2(C)[C@@H](O)CC[C@@H]12" ?
Output line: inactive

Input line: Same again, this time with "Brc1cc(-c2ccc(Br)c(Br)c2Br)cc(Br)c1Br"
Output line: inactive
